Cited source: patent US20210292393A1

# TESTED TARGET: SARS-CoV-2 spike (S) protein (SARS-CoV-2), P0DTC2
# EXPERIMENTAL SETUP: remark: other sources report otherwise
QUANTITY NAME: kon (M⁻¹ s⁻¹)
Give bare numbers, in M⁻¹ s⁻¹.

BINDER	kon (M⁻¹ s⁻¹)
antibody 325 (antibody, V domains shown) VH: QVQLQESGPGLVKPSQTLSLTCTVSGGSISGGGYYWSWIRQHPGKGLEWIGYIYYSGSTYYNPSLQSRVTISVDTSKNQFSLKLSSVTAADTAVYYCARVGTSSVWYFDYWGQGTLVTVSS VL: QSALTQPRSVSGSPGQSVTISCTGTSSDVGGYNYVSWYQQHPGKAPKLMIYDVTKRPSGVPDRFSGSKSGNTASLTISGLQAEDEADYYCSSYAGSWVFGGGTKLTVL	20900

Below: the item to evaluate.
Q: Value lookup for kon; key = antibody 382 (antibody, V domains shown) VH: QVQLVESGGGVVQPGRSLRLSCAASGFTFSNYGMHWVRQAPGKGLEWMTVISFDGRNKYYADSVKGRFTISRDNSKNTLFLQMNSLTTEDTALYFCASGRRPRYSSGWSFDYWGQGTLVTVSS VL: DIQMTQSPSSLSASVGDRVTITCQASQDIGNYLNWYQQKLGKAPNLLIYDASNLETGVPSRFSGSGSGTDFTFTINSLQPEDTATYYCQQYDDPSITFGQGTRLEIK
Ans: 120000
